System: human ovarian cancer cell line SK-OV-3
Test: Cytotoxicity assay of camptothecin derivative toxins (Example A)
Format: cell-based
Conditions: Homo sapiens, SK-OV-3, 72 h; 3 days incubation; Cell Titer Turbo 2.0 luminescent cell viability
Classes by IC50: bottom range (below 10 nM), center range (10 nM to below 70 nM), top range (70 nM or more)

Consider the following illustrative entries.
compound: CCCSCc1c2c(nc3cc(F)c(Br)cc13)-c1cc3c(c(=O)n1C2)COC(=O)[C@]3(O)CC [STI-G2-06C]
discreteLabel: center range
//
compound: CC[C@@]1(O)C(=O)OCc2c1cc1n(c2=O)Cc2c-1nc1cc(F)c(C)cc1c2NC(=O)CO
discreteLabel: top range
//
compound: CC[C@@]1(O)C(=O)OCc2c1cc1n(c2=O)Cc2c-1nc1cc(F)c(C)cc1c2N [STI-F-03C-1]
discreteLabel: center range
//
compound: CC[C@@]1(O)C(=O)OCc2c1cc1n(c2=O)Cc2c-1nc1cc(F)c(C)cc1c2NC(=O)C(O)C1CC1 (stereo partly drawn)
discreteLabel: center range
//
compound: CCCCCc1c2c(nc3cc(F)c(N)cc13)-c1cc3c(c(=O)n1C2)COC(=O)[C@]3(O)CC
discreteLabel: bottom range

Prompt: Please let me know in which category the item `CC[C@@]1(O)C(=O)OCc2c1cc1n(c2=O)Cc2cc3cc(C)c(F)cc3nc2-1` belongs.
Response: center range

Prompt: And then `CCCCCNc1c2c(nc3cc(F)c(C)cc13)-c1cc3c(c(=O)n1C2)COC(=O)[C@]3(O)CC` , what is it?
Response: bottom range

Prompt: And then `CC[C@@]1(O)C(=O)OCc2c1cc1n(c2=O)Cc2c-1nc1cc3c(cc1c2CCCCO)OCO3` , what is it?
Response: top range

Prompt: And then `CC[C@@]1(O)C(=O)OCc2c1cc1n(c2=O)Cc2c-1nc1cc(F)c(C)cc1c2C(=O)O` , what is it?
Response: top range

Prompt: And then `CCCCCc1c2c(nc3cc(F)c([N+](=O)[O-])cc13)-c1cc3c(c(=O)n1C2)COC(=O)[C@]3(O)CC` , what is it?
Response: top range

Prompt: And then `CC[C@@]1(O)C(=O)OCc2c1cc1n(c2=O)Cc2c-1nc1cc(F)c(C)cc1c2NCCCCO` , what is it?
Response: bottom range

Prompt: And then `CC[C@@]1(O)C(=O)OCc2c1cc1n(c2=O)Cc2c-1nc1cc(F)c(C)cc1c2NCCCCN` , what is it?
Response: top range

Prompt: And then `CC[C@@]1(O)C(=O)OCc2c1cc1n(c2=O)Cc2c-1nc1cc(F)c(C)cc1c2CNCC(C)(C)C` , what is it?
Response: center range

Prompt: And then `CC[C@@]1(O)C(=O)OCc2c1cc1n(c2=O)Cc2cc3cc4c(cc3nc2-1)OCO4` , what is it?
Response: center range

Prompt: And then `CC[C@@]1(O)C(=O)OCc2c1cc1n(c2=O)Cc2c-1nc1cc(F)c(C)cc1c2CNCC1CCCC1` , what is it?
Response: center range

Prompt: And then `CCCSCc1c2c(nc3cc(F)c(N)cc13)-c1cc3c(c(=O)n1C2)COC(=O)[C@]3(O)CC` , what is it?
Response: bottom range

Prompt: And then CCc1c2c(nc3ccc(O)cc13)-c1cc3c(c(=O)n1C2)COC(=O)[C@]3(O)CC [SN-38, reference compound] , what is it?
Response: center range

The measurements presented in this section are drawn from patent US20260102507A1.
